Structures can show the parent of a compound that is named as a salt.
Criterion: melting point meeting or surpassing 200 °C. Met: Criterion met. Not met: Criterion not met.

Answered examples (6):
1. COC[C@H]1CCCN1NC(=O)c1ccc(-c2[nH]nc3c2C(=O)c2c(NC(=O)NN4CCOCC4)cccc2-3)s1 (as salt: TFA)
Criterion met
2. CC(C)(C)OC(=O)Nc1ccc(CC(=O)N2CCC(c3[nH]nc4c3C(=O)c3c(NC(=O)NN5CCOCC5)cccc3-4)CC2)cc1
Criterion not met
3. COC(C)(C)[C@H]1CCCN1NC(=O)Nc1cccc2c1C(=O)c1c-2n[nH]c1-c1ccc(N2CCNCC2)cc1 (as salt: TFA)
Criterion met
4. CN(C)CC(=O)Nc1cccc2c1C(=O)c1c-2n[nH]c1-c1ccc(N2CCNCC2)cc1 (as salt: TFA)
Criterion met
5. COc1ccc(-c2[nH]nc3c2C(=O)c2c(NC(C)=O)cccc2-3)cc1
Criterion met
6. COc1ccc(-c2[nH]nc3c2C(=O)c2c(NC(=O)CN4CCN(C)CC4)cccc2-3)cc1
Criterion met

Could you please find out whether COc1ccc(-c2[nH]nc3c2C(=O)c2c(NC(=O)CN4CCOCC4)cccc2-3)cc1 has melting point that meets 200 °C or exceeds it?
Criterion met

Could you please find out whether CCc1[nH]nc2c1C(=O)c1c(NC(=O)CN3CCC(CN)CC3)cccc1-2 has melting point that meets 200 °C or exceeds it?
Criterion not met

Could you please find out whether O=C(CN1CCOCC1)Nc1cccc2c1C(=O)c1c-2n[nH]c1-c1ccc(N2CCOCC2)cc1 has melting point that meets 200 °C or exceeds it?
Criterion met
